# credit: patent US8445468B2

- tested target: full-length recombinant rat vitamin D receptor (Rattus norvegicus)
- Construct: Full-length recombinant rat receptor was expressed in E. coli BL21 (DE3) Codon Plus RIL cells; histidine tag (C)
- Sequence (P13053 whole entry): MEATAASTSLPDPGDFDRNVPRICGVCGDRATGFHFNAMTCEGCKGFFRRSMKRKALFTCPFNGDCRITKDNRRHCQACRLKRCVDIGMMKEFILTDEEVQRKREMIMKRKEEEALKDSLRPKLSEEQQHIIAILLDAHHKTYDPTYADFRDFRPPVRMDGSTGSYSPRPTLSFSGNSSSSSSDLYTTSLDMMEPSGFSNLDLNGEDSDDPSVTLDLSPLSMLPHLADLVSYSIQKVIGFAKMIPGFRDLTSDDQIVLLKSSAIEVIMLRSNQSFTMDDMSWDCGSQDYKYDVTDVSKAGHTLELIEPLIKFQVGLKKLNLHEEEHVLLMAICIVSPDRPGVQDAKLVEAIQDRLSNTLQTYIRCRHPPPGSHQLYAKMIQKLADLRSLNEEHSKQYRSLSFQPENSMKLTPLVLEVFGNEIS
- test description: Vitamin D receptor binding, competition with [3H]-1,25(OH)2D3
- test parameters: full-length recombinant rat vitamin D receptor; FIG. 1; read-out: Ki, competition with [3H]-1,25(OH)2D3 for binding to VDR
observed property: Ki (nM)
Quick reminder: number only, in nM, skip the unit.

Ask | Reported Ki for `C=C1[C@H](O)CC(=C/C=C2\CCC[C@]3(C)[C@@H]([C@@H](C)/C=C/CC(C)(C)O)CC[C@@H]23)C[C@H]1O` : what is it?
Reply | 0.06
